Record form. Attribute: MIC. Fill in for each entry.
# System: Staphylococcus aureus
# Method Description: Antimicrobial activity against Staphylococcus aureus MTCC 96 assessed as growth inhibition after 24 hrs by agar well diffusion method
# Assay type: functional
# Condition Details: MTCC 96, 24 h

Example entries and their recorded answers appear below.
| Smiles Record | Measurement Kind | Measurement |
| --- | --- | --- |
| COc1ccc(-c2nn(-c3ccccc3)cc2-c2nc(-c3ccc(OC)cc3)c(C(=O)O)s2)cc1 | MIC | 50 µg/mL |
| CCOC(=O)c1sc(-c2cn(-c3ccccc3)nc2-c2ccc(OC)cc2)nc1-c1ccc(OC)cc1 | MIC | 50 µg/mL |
| COc1ccc(-c2nn(-c3ccccc3)cc2-c2nc(-c3ccccc3)c(C(=O)O)s2)cc1 | MIC | 25 µg/mL |
| O=C(O)c1sc(-c2cn(-c3ccccc3)nc2-c2ccc(Cl)cc2)nc1-c1ccccc1 | MIC | 25 µg/mL |

Here is the next item to consider.
Task item: Give recorded MIC. COc1ccc(-c2nc(-c3cn(-c4ccccc4)nc3-c3ccc(F)cc3)sc2C(=O)O)cc1
Reply: 25 µg/mL
